Value source: paper PMC5128750

- target-desc: PP2A (Homo sapiens, UniProt P67775)
- Construct: purified PP2A (EMD Millipore Corporation, Darmstadt, Germany, cat. #14-111; human red blood cells); purchased EMD Millipore Corporation 14-111; host or cells: human red blood cells (tissue-purified)
- Sequence (P30153 2-589): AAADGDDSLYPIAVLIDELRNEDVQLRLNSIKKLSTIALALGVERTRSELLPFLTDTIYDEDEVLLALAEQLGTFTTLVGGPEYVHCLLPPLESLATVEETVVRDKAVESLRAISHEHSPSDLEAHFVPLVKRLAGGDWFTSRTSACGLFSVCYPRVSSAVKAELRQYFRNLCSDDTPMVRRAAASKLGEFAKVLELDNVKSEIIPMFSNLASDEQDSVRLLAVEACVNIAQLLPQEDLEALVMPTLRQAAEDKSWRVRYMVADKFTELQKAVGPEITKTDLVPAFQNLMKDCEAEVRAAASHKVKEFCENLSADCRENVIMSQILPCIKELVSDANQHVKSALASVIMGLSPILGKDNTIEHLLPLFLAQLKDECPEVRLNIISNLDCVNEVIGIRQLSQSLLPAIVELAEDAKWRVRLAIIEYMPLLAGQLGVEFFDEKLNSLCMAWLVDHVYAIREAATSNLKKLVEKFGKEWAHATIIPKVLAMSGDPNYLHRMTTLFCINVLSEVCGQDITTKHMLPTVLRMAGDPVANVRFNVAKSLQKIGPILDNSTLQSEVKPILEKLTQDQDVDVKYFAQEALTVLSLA
- Sequence (P67775 whole entry): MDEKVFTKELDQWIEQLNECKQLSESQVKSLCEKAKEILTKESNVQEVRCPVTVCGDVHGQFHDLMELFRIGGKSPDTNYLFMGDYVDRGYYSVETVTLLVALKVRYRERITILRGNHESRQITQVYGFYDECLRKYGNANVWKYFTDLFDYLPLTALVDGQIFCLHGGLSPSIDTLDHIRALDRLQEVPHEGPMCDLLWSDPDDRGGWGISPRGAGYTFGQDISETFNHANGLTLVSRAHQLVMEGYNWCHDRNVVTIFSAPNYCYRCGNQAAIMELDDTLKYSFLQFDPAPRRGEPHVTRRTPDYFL
- assay-info: biochemical
- Type: biochemical
Exercise: state measured Rel. Potency / TEF for each of the compounds provided.

[
  {
    "compound": "C=C1C(O)C2OC3(CCC(C=CC(C)C4CC(C)=CC5(OC(CC(C)(O)C(=O)O)CCC5O)O4)O3)CCC2OC1C(O)CC(C)C1CCCC2(OCCCC2C)O1 (stereo not drawn) [syn. DTX2, Dinophysistoxin-2]",
    "Rel. Potency / TEF": 0.345
  }
]

Batch of 3 compounds: report Rel. Potency / TEF for each.
1. C=C1C(O)C2OC3(CCC(C=CC(C)C4CC(C)=CC5(OC(CC(C)(O)C(=O)O)CCC5O)O4)O3)CCC2OC1C(O)CC(C)C1CCCC2(OCCCC2C)O1 (stereo not shown) [nat. DTX2, Dinophysistoxin-2]
2. C=C1[C@@H](O)[C@@H]2O[C@]3(CC[C@H](/C=C/[C@@H](C)[C@@H]4CC(C)=C[C@@]5(O[C@H](C[C@@](C)(O)C(=O)O)CC[C@H]5O)O4)O3)CC[C@H]2O[C@@H]1[C@@H](O)C[C@H](C)[C@H]1O[C@@]2(CCCCO2)CC[C@H]1C
3. C=C1C(O)C2OC3(CCC(C=CC(C)C4CC(C)=CC5(OC(CC(C)(O)C(=O)O)CCC5O)O4)O3)CCC2OC1C(O)CC(C)C1CCCC2(OCCCC2C)O1 (stereo not drawn) [syn. 2-epi-DTX2, 2-epi-dinophysistoxin-2]

1. 0.472
2. 1.000
3. 0.003

* * *

- target-desc: PP5 (Homo sapiens, UniProt P53041)
- Sequence (P53041 whole entry): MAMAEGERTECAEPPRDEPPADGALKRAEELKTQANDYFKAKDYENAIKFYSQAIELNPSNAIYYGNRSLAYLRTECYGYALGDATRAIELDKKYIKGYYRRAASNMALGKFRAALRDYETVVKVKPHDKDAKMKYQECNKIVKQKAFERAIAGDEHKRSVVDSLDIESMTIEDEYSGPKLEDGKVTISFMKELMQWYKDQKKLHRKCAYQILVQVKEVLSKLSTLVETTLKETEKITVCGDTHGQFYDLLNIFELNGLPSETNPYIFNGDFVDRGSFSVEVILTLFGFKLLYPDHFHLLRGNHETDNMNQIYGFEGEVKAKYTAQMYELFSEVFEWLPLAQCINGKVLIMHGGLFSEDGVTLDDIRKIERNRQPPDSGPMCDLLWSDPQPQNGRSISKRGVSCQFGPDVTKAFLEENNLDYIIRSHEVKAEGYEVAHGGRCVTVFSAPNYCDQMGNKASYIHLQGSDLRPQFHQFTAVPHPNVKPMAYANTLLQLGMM
- assay-info: PP5 inhibition, fluorimetric DiFMUP assay
- Format: biochemical
- Set-up: purchased EMD Millipore Corporation 14-778; host or cells: E. coli
- stated-conditions: PP5, relative to OA
Exercise: state measured Rel. Potency / TEF for each of the molecules provided.
One number for each entry.

Observe how each entry below is paired with its result.
[
  {
    "molecule": "C=C1C(O)C2OC3(CCC(C=CC(C)C4CC(C)=CC5(OC(CC(C)(O)C(=O)O)CCC5O)O4)O3)CCC2OC1C(O)CC(C)C1CCCC2(OCCCC2C)O1 (stereo not drawn) [syn. DTX2, Dinophysistoxin-2]",
    "quantitative-result": 0.582
  },
  {
    "molecule": "C=C1C(O)C2OC3(CCC(C=CC(C)C4CC(C)=CC5(OC(CC(C)(O)C(=O)O)CCC5O)O4)O3)CCC2OC1C(O)CC(C)C1CCCC2(OCCCC2C)O1 (stereo not shown) [nat. DTX2, Dinophysistoxin-2]",
    "quantitative-result": 0.438
  },
  {
    "molecule": "C=C1C(O)C2OC3(CCC(C=CC(C)C4CC(C)=CC5(OC(CC(C)(O)C(=O)O)CCC5O)O4)O3)CCC2OC1C(O)CC(C)C1CCCC2(OCCCC2C)O1 (stereo not drawn) [syn. 2-epi-DTX2, 2-epi-dinophysistoxin-2]",
    "quantitative-result": 0.004
  }
]

From here, focus on the item given below.
Would you please give the reported Rel. Potency / TEF of C=C1[C@@H](O)[C@@H]2O[C@]3(CC[C@H](/C=C/[C@@H](C)[C@@H]4CC(C)=C[C@@]5(O[C@H](C[C@@](C)(O)C(=O)O)CC[C@H]5O)O4)O3)CC[C@H]2O[C@@H]1[C@@H](O)C[C@H](C)[C@H]1O[C@@]2(CCCCO2)CC[C@H]1C [nat. OA, Okadaic Acid] with PP5 (Homo sapiens, UniProt P53041)?
1.000

* * *

- Tested on: PP1
- Format: biochemical, rabbit
Exercise: state measured IC50 for each of the molecules provided.
One number for each entry, in nM.

Observe how each entry below is paired with its result.
[
  {
    "molecule": "C=C1[C@@H](O)[C@@H]2O[C@]3(CC[C@H](/C=C/[C@@H](C)[C@@H]4CC(C)=C[C@@]5(O[C@H](C[C@@](C)(O)C(=O)O)CC[C@H]5O)O4)O3)CC[C@H]2O[C@@H]1[C@@H](O)C[C@H](C)[C@H]1O[C@@]2(CCCCO2)CC[C@H]1C [nat. OA, Okadaic Acid]",
    "readout-units": "nM",
    "IC50": 25.2
  },
  {
    "molecule": "C=C1C(O)C2OC3(CCC(C=CC(C)C4CC(C)=CC5(OC(CC(C)(O)C(=O)O)CCC5O)O4)O3)CCC2OC1C(O)CC(C)C1CCCC2(OCCCC2C)O1 (stereo not drawn) [syn. DTX2, Dinophysistoxin-2]",
    "readout-units": "nM",
    "IC50": 82.6
  },
  {
    "molecule": "C=C1C(O)C2OC3(CCC(C=CC(C)C4CC(C)=CC5(OC(CC(C)(O)C(=O)O)CCC5O)O4)O3)CCC2OC1C(O)CC(C)C1OC2(CCC1C)OCCCC2C (centres unmarked) [nat. DTX1, Dinophysistoxin-1]",
    "readout-units": "nM",
    "IC50": 34.8
  },
  {
    "molecule": "C=C1C(O)C2OC3(CCC(C=CC(C)C4CC(C)=CC5(OC(CC(C)(O)C(=O)O)CCC5O)O4)O3)CCC2OC1C(O)CC(C)C1CCCC2(OCCCC2C)O1 (stereo not drawn) [syn. 2-epi-DTX2, 2-epi-dinophysistoxin-2]",
    "readout-units": "nM",
    "IC50": 3110
  }
]

From here, focus on the item given below.
Report IC50 for C=C1C(O)C2OC3(CCC(C=CC(C)C4CC(C)=CC5(OC(CC(C)(O)C(=O)O)CCC5O)O4)O3)CCC2OC1C(O)CC(C)C1CCCC2(OCCCC2C)O1 (centres unmarked) [nat. DTX2, Dinophysistoxin-2]
76.4
